Listed here: items and their measured Colony Color.
tested on: Pseudomonas aeruginosa (psae); test: Example 3: colony color on chromogenic TSA II with 5% sheep blood (chromogen in medium); assay type: cell-based; details: psae 15442; CO2; 21 h
Write the value as a bare number.

Below: 3 molecules and their reported Colony Color.
[
  {
    "molecule": "NC1CCCCC1.O=C(O)[C@H]1O[C@@H](Oc2c[nH]c3cc(Cl)ccc23)[C@H](O)[C@@H](O)[C@@H]1O [Sal-Glucuro]",
    "value_type": "Colony Color",
    "reported": 0
  },
  {
    "molecule": "O=S(=O)([O-])Oc1c[nH]c2ccc(Br)c(Cl)c12.[K+] [X-Sulf]",
    "value_type": "Colony Color",
    "reported": 0
  },
  {
    "molecule": "CC(=O)N[C@H]1[C@H](Oc2c[nH]c3ccc(Br)c(Cl)c23)O[C@H](CO)[C@H](O)[C@@H]1O [X-Acglmn]",
    "value_type": "Colony Color",
    "reported": 0
  }
]

-- ask Would you kindly share the measured Colony Color for O=P(O)(O)Oc1c[nH]c2cc(Cl)c(Br)cc12 [Mag-Phos] ?
-- reply 0

-- ask Give its Colony Color value. Item: OC[C@H]1O[C@@H](Oc2c[nH]c3ccc(Br)c(Cl)c23)[C@H](O)[C@@H](O)[C@@H]1O [X-Glucoside, 5-Br-4-Cl-3-indolyl-β-D-glucopyranoside]
-- reply 0

-- ask What value of Colony Color has been reported for the following molecule? OC[C@H]1O[C@@H](Oc2c[nH]c3ccc(Br)c(Cl)c23)[C@H](O)[C@@H](O)[C@H]1O [X-Gal]
-- reply 0
